Cited source: ChEMBL document CHEMBL5550200

Biological target: Ephrin type-B receptor 1 (Homo sapiens)
Experiment: Induction of stabilization of recombinant EPHB1 (unknown origin) assessed as change in melting temperature by differential scanning fluorimetry assay
METRIC_NAME: deltaTm (K)

CC(C)Oc1cc(-c2cnc3nc2NCCCNS(=O)(=O)c2cccc(c2)N3)ccc1F :: 0
COc1cc(-c2cnc3nc2NCCCNS(=O)(=O)c2cc(ccc2-c2ccc(O)cc2)N3)ccc1F :: 4.3
COc1cc(-c2cnc3nc2NCCCNS(=O)(=O)c2cccc(c2)N3)ccc1F :: 4.3

P: COc1c(F)ccc(-c2cnc3nc2NCCCNS(=O)(=O)c2cccc(c2)N3)c1F
Q: COc1cc(-c2cnc3nc2NCCCNS(=O)(=O)c2cccc(c2)N3)ccc1Cl
Form: Entry with minimum deltaTm (choose one): P / Q Provide the label of your selected option as the answer.
Q
(Q: 0.9 K, P: 5.6 K)
